Target: ATF4/FOS heterodimer (Homo sapiens, UniProt P18848)
Construct: made in house
Assay: Competition FRET assay
Assay type: binding
Conditions: 37°C; 10 nM ATF4 (fluorescein) with 200 nM FOS (TAMRA); unlabeled design
Protocol: In the competition form of the assay, a FRET pair was made by mixing 10 nM of the donor-labeled peptide with a specified concentration of the acceptor-labeled peptide in 1 mM TCEP-HCl, and 20 μL of this solution was added to the wells after unlabeled design was titrated in 2-fold dilutions over the wells to a final concentration ranging from 0 to 2.5 μM. […] Samples were equilibrated for one hour before reading the plates; repeated reading of the plates over several hours gave no change in signal. […]
Where no end group is shown, it is not given here.
Readout name: IC50 (nM)
Unit nM implied. Number only.

[ask] What does the record list as IC50 for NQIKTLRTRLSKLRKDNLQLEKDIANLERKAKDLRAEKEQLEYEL [ATF4-d1] ?
[reply] 279

---

Target: BATF2 (Homo sapiens, UniProt Q8N1L9)
Construct: made in house
Sequence (Q8N1L9 17-80 limits assumed): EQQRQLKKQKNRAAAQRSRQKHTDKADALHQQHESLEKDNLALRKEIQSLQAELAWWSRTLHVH
Assay: Direct-binding FRET assay
Conditions: 23°C; C-terminal fluorescein design as donor, TAMRA target titrated; read-out: Kd
pKd: −log10 of the molar value. Where no end group is shown, it is not given here.
Readout name: pKd

[ask] What does the record list as pKd for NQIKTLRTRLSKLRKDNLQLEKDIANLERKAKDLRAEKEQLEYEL [ATF4-d1] ?
[reply] < 6.00

---

Target: XBP1 (Homo sapiens, UniProt P17861)
Construct: made in house
Sequence (P17861 70-133 limits assumed): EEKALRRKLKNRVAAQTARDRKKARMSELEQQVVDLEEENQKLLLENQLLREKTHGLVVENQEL
Experiment: Direct-binding FRET assay
Conditions: 4°C; C-terminal rhodamine design; repeat 1
Where no end group is shown, it is not given here.
Readout name: Kd

[ask] What does the record list as Kd for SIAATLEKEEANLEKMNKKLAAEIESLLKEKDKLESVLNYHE [JUN-d1] ?
[reply] > 1 µM

---

target: BACH1 (Homo sapiens, UniProt O14867); assay: Direct-binding FRET assay; parameters: made in house; conditions: 37°C; N-terminal rhodamine design; repeat 2; read-out: Kd
Sequence (O14867 557-620 limits assumed): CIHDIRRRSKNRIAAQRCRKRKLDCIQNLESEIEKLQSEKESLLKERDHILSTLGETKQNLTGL
Where no end group is shown, it is not given here.
Readout name: Kd

[ask] What does the record list as Kd for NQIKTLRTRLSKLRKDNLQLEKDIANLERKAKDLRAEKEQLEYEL [ATF4-d1] ?
[reply] > 1000 nM

---

What Kd was measured for each of the following?
Target: CREB1 (Homo sapiens)
Construct: made in house
Sequence (P16220 269-327 limits assumed): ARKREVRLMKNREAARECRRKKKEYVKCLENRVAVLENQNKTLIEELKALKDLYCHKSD
Assay: Direct-binding FRET assay
Settings: 4°C; N-terminal rhodamine design; mean or single; read-out: Kd
Where no end group is shown, it is not given here.

[ask] What does the record list as Kd for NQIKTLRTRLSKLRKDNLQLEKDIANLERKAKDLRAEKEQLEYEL [ATF4-d1] ?
[reply] > 5 µM

[ask] Then what about the sequence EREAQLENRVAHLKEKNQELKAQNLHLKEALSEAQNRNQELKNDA [XBP1-d1] ?
[reply] > 1 µM

[ask] Then what about the sequence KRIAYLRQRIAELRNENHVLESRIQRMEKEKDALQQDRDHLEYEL [ATF5-d1] ?
[reply] 0.506 µM

---

biological target: ATF5 (Homo sapiens); construct: made in house; assay: Direct-binding FRET assay; conditions: 23°C; C-terminal rhodamine design; repeat 1; read-out: Kd
Sequence (Q9Y2D1 208-271 limits assumed): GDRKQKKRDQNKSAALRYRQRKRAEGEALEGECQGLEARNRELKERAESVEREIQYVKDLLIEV
Where no end group is shown, it is not given here.
Readout name: Kd

[ask] What does the record list as Kd for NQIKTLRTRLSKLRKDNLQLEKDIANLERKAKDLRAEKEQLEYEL [ATF4-d1] ?
[reply] > 5 µM

---

Target: HLF (Homo sapiens)
Construct: made in house
Sequence (Q16534 225-288 limits assumed): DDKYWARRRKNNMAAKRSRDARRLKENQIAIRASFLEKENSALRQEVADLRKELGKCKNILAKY
Assay: Direct-binding FRET assay
Details: 23°C; C-terminal fluorescein design as donor, TAMRA target titrated
Where no end group is shown, it is not given here.
Readout name: Kd

[ask] What does the record list as Kd for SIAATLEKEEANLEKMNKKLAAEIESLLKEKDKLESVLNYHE [JUN-d1] ?
[reply] > 1000 nM

---

Target: NFE2L1 (Homo sapiens)
Sequence (Q14494 654-717 limits assumed): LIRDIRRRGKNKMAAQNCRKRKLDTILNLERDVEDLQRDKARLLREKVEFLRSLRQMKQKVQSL
Assay: Direct-binding FRET assay
Set-up: made in house
Settings: Kd, 37°C; N-terminal rhodamine design; mean or single
Description: The direct binding assay was performed manually in 384-well plates and is similar to a previously described assay. Wells were filled with 20 μL of 1 mM TCEP-HCl. […] Briefly, the Kd of the designed peptide homodimer was experimentally determined and used with previously determined target homodimer Kd values to determine the heterodimer Kd. […] A minimum 15% change in the donor fluorescence upon titrating the acceptor peptide from 0 to 1000 nM was required for a fit to be attempted. […]
Where no end group is shown, it is not given here.
Readout name: Kd

[ask] What does the record list as Kd for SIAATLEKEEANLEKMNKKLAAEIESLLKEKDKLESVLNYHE [JUN-d1] ?
[reply] > 1000 nM

---

target: NFIL3 (Homo sapiens, UniProt Q16649); construct: made in house; assay: Direct-binding FRET assay; conditions: 4°C; C-terminal fluorescein design as donor, TAMRA target titrated; read-out: Kd
Sequence (Q16649 73-136 limits assumed): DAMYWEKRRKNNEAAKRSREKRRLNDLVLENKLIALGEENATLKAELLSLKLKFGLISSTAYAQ
Where no end group is shown, it is not given here.
Readout name: Kd (µM)
Unit µM implied. Number only.

[ask] What does the record list as Kd for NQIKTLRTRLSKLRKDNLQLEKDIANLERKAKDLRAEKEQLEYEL [ATF4-d1] ?
[reply] 0.0424

---

What pKd was measured for each of the following?
Molecular target: MAFF (Homo sapiens, UniProt Q9ULX9)
Construct: made in house
Sequence (Q9ULX9 51-114 limits assumed): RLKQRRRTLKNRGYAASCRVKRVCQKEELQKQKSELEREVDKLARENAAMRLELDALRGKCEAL
Test: Direct-binding FRET assay
Settings: 4°C; C-terminal rhodamine design; mean or single; read-out: Kd
Procedure: The direct binding assay was performed manually in 384-well plates and is similar to a previously described assay. Wells were filled with 20 μL of 1 mM TCEP-HCl. […] Briefly, the Kd of the designed peptide homodimer was experimentally determined and used with previously determined target homodimer Kd values to determine the heterodimer Kd. […] A minimum 15% change in the donor fluorescence upon titrating the acceptor peptide from 0 to 1000 nM was required for a fit to be attempted. […]
pKd: −log10 of the molar value. Where no end group is shown, it is not given here.

[ask] What does the record list as pKd for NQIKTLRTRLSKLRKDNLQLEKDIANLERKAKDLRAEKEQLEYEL [ATF4-d1] ?
[reply] < 5.30

[ask] Then what about the sequence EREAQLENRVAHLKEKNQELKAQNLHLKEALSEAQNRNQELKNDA [XBP1-d1] ?
[reply] < 6.00

[ask] Then what about the sequence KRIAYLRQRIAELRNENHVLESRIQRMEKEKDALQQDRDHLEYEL [ATF5-d1] ?
[reply] 6.58

---

target: MAFF (Homo sapiens, UniProt Q9ULX9); construct: made in house; experiment: Direct-binding FRET assay; conditions: 37°C; C-terminal rhodamine design; repeat 1; read-out: Kd
Where no end group is shown, it is not given here.
Readout name: Kd

[ask] What does the record list as Kd for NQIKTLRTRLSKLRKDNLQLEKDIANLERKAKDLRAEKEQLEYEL [ATF4-d1] ?
[reply] < 200 nM

---

Target: MAFF (Homo sapiens, UniProt Q9ULX9)
Construct: made in house
Test: Direct-binding FRET assay
Procedure: The direct binding assay was performed manually in 384-well plates and is similar to a previously described assay. Wells were filled with 20 μL of 1 mM TCEP-HCl. […] Briefly, the Kd of the designed peptide homodimer was experimentally determined and used with previously determined target homodimer Kd values to determine the heterodimer Kd. […] A minimum 15% change in the donor fluorescence upon titrating the acceptor peptide from 0 to 1000 nM was required for a fit to be attempted. […]
pKd: −log10 of the molar value. Where no end group is shown, it is not given here.
Readout name: pKd

[ask] What does the record list as pKd for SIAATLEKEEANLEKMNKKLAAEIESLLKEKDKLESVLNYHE [JUN-d1] ?
[reply] < 6.00

---

Biological target: MAFF (Homo sapiens, UniProt Q9ULX9)
Construct: made in house
Sequence (Q9ULX9 51-114 limits assumed): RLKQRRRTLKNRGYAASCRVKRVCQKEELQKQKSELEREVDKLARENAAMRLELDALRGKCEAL
Assay: Direct-binding FRET assay
Settings: 37°C; N-terminal rhodamine design; repeat 1; read-out: Kd
Where no end group is shown, it is not given here.
Readout name: Kd

[ask] Field: Kd (MAFF (Homo sapiens, UniProt Q9ULX9)). Entry: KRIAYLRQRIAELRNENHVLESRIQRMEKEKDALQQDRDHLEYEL [ATF5-d1]
[reply] > 5 µM

Reference source: paper PMC4335062
